# run description: Half-life of ADR destruction by UVA light in the presence of test compounds (decrease in absorbance at 480 nm)
# Format: physicochemical
Classification field: class 1 = Half-Life of ADR Destruction, 100 μM Test Compound at or over 20 min; class 0 = Half-Life of ADR Destruction, 100 μM Test Compound under 20 min.

compound=O=C(O)c1ccccc1C(=O)c1ccccc1 cat="class 1"
compound="COc1ccc2[nH]c3ccccc3c(=O)c2c1 [2-Methoxy-9(10H) Acridone]" cat="class 1"
compound=CC=Cc1ccccc1O cat="class 1"
compound="Cn1c2ccccc2c(=O)c2ccccc21 [10-Methyl-9(10H) Acridone]" cat="class 0"
compound=Nc1ccc([N+](=O)[O-])cc1[N+](=O)[O-] cat="class 1"
compound="COc1ccc(C(C)=O)c(O)c1 [2′-Hydroxy-4-methoxyaceotphenone]" cat="class 1"
compound=Cc1cc2nc3[nH]c(=O)[nH]c(=O)c3nc2cc1C cat="class 0"
compound=CCC(=O)c1ccccc1 cat="class 1"
compound="O=C(c1ccccc1)c1ccc2n1CCC2C(=O)O (centres unmarked) [Ketorlac, reference compound]" cat="class 0"
compound=O=C(O)c1ccc(C(=O)c2ccccc2)cc1 cat="class 0"
compound=Nc1cccc(OCc2ccccc2)c1 cat="class 1"
compound=COc1ccc2[nH]c(C)cc2c1 cat="class 1"
compound=CCC(=O)c1ccc2cc(OC)ccc2c1 cat="class 1"

====

# run description: Half-life of ADR destruction by UVA light in the presence of test compounds (decrease in absorbance at 480 nm)
# Assay type: physicochemical
Property: Half-Life of ADR Destruction, 100 μM Test Compound and 0.5 μM Riboflavin; scope: individual compounds
readout type: Half-Life of ADR Destruction, 100 μM Test Compound and 0.5 μM Riboflavin

compound=Nc1ccc(OC(F)(F)F)cc1 result="43.0 min"
compound=CCC(=O)c1ccc2cc(OC)ccc2c1 result="27.4 min"
compound=Nc1ccccc1C(=O)c1ccccc1 result="16.7 min"
compound=CCCCc1ccc(N)cc1 result="7.17 min"
compound=c1cc[nH]c1 result="11.6 min"
compound=Nc1cc([N+](=O)[O-])cc([N+](=O)[O-])c1 result="75.3 min"
compound=Nc1cccc(OCc2ccccc2)c1 result="17.7 min"
compound=Nc1ccc([N+](=O)[O-])cc1[N+](=O)[O-] result="50.2 min"
compound=COc1ccc2[nH]c(C)cc2c1 result="7.00 min"
compound="Nc1ccc(S(N)(=O)=O)cc1 [4-Amino Benzenesulfonamide]" result="25.1 min"
compound="O=C1CCc2ccccc2N1 [3,4-Dihydro-2(1H)-quinolinone]" result="20.1 min"
compound=Cc1cccc(N)c1 result="33.5 min"

====

# run description: Half-life of ADR destruction by UVA light in the presence of test compounds (decrease in absorbance at 480 nm)
# Format: physicochemical
// NB: equality with 8 min counts as f; only Half-Life of ADR Destruction, 100 μM Test Compound and 0.5 μM Riboflavin strictly below is t

compound="CCC(=O)c1ccc(OC)cc1 [4-Methoxypropriophenone]" cat=f
compound="Nc1ccc2ccccc2c1 [2-Aminonaplithalene]" cat=f
compound="c1ccc2c(c1)CCN2 [Indoline]" cat=f
compound="COc1ccc2[nH]c3ccccc3c(=O)c2c1 [2-Methoxy-9(10H) Acridone]" cat=f
compound="Cc1cc2nc3[nH]c(=O)[nH]c(=O)c3nc2cc1C [Lumichrome]" cat=t
compound="O=C(O)c1ccc(C(=O)c2ccccc2)cc1 [4-Benzophenone-carboxylic acid]" cat=t
compound="O=C(c1ccccc1)c1ccc2n1CCC2C(=O)O (stereo not shown) [Ketorlac, reference compound]" cat=t
compound="O=C(O)c1cccc(C(=O)c2ccccc2)c1 [3-Benzophenone-carboxylic acid]" cat=f
compound="Nc1cccc(S(=O)(=O)c2cccc(N)c2)c1 [3,3′-Diamino Phenylsulfone]" cat=t
compound="NS(=O)(=O)c1ccccc1 [Benzenesulfonamide]" cat=f
